Entries and their measured normalized growth follow.
# assay.name: chemical genetic growth profiling, strain panel (AID 1159580);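 also: tested at 20 µM; growth read once vehicle control cultures reached saturation at 30 °C; 1 = growth at the plate median or of vehicle wells; lower values mean less growth of the strain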
# run.parameters: S. cerevisiae deletion strains, growth OD, locus YEL037C, strain rad23, stronger effect = lower value
Among all 5,500 compounds or so, about 2,000 (36%) were called active. Inconclusive results (about 18%) are left out. The list shows a part of the results.
endpoint: normalized growth

compound=O=C(O)c1ccc2c(c1)OCO2 endpoint="normalized growth" test_result=0.987
compound=CC1(C)O[C@@H]2[C@@H](CO[C@@]3(COS(N)(=O)=O)OC(C)(C)O[C@@H]23)O1 endpoint="normalized growth" test_result=1
compound="Nc1nc(N)c2nc(CNc3ccc(C(=O)NC(CCC(=O)O)C(=O)O)cc3)cnc2n1 (stereo unspecified)" endpoint="normalized growth" test_result=0.989
compound=O=C(O)CNCP(=O)(O)O endpoint="normalized growth" test_result=1.01
compound=CCOC(N)=O endpoint="normalized growth" test_result=1.01
compound=NC(=O)c1ccc(N)nc1 endpoint="normalized growth" test_result=1.01
